# SYSTEM_TESTED: Human complement C1s enzyme (Homo sapiens, UniProt P09871)
# Construct: purified from human serum, Complement Technology, Inc
# Sequence (P09871 438-688 limits assumed): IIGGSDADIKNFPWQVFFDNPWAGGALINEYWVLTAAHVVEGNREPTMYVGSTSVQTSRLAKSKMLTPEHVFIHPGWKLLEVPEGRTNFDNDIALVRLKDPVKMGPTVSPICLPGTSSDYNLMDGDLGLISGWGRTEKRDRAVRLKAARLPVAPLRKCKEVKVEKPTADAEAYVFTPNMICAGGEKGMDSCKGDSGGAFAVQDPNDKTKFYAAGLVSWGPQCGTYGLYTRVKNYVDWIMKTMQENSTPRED
# Sequence (P09871 16-437 partner limits assumed): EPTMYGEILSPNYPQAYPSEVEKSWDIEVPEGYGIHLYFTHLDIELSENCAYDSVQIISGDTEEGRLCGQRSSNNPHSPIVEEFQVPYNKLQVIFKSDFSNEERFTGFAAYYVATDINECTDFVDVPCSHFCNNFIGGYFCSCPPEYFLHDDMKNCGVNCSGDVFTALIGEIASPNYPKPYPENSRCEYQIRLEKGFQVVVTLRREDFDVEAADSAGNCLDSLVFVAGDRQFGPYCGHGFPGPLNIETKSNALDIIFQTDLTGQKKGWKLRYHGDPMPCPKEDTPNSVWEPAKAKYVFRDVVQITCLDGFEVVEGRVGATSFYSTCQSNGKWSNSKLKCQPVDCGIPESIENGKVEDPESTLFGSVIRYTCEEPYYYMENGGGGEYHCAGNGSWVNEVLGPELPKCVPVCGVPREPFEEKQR
# ASSAY: Human C1s enzyme assay
# APPLIED_CONDITIONS: human complement C1s enzyme 1.16 nM, substrate Z-L-Lys-SBzl, A405; read-out: IC50 (Stars)
pIC50: −log10 of the molar value.
Reported pIC50 by item:

compound="O=C(CN1C(=O)[C@@H](NCCCc2ccccc2)CC[C@H]1c1ccccc1)NCc1cc2cnccc2[nH]1 (relative stereo)" test_readout=pIC50 result_value="< 6.00"
compound=C[C@@H](Nc1ncc(N2CCCCC2)n(CC(=O)NCc2cc3cnccc3[nH]2)c1=O)c1ccc(-c2ccccc2F)cc1 test_readout=pIC50 result_value="> 7.00"
compound=O=C(Cn1c(-c2ccccc2)ncc(N2CCn3c(nnc3C(F)(F)F)C2)c1=O)NCc1cc2cnccc2[nH]1 test_readout=pIC50 result_value="6.00 to 7.00"
compound=O=C(Cn1c(-c2ccccc2F)cnc(N[C@H](CF)c2ccc3oc4ccccc4c3c2)c1=O)NCc1cc2cnccc2[nH]1 test_readout=pIC50 result_value="> 7.00"
compound=CO[C@@H]1CO[C@H]2[C@@H]1OC[C@H]2Oc1ccc(-c2ncc(NCCCc3ccccc3)c(=O)n2CC(=O)NCc2cc3cnccc3[nH]2)cc1 test_readout=pIC50 result_value="> 7.00"

Short answer on Human complement C1s enzyme (Homo sapiens, UniProt P09871) for O=C(Cn1c(C2CC2)ncc(NCc2ccc3oc4ccccc4c3c2)c1=O)NCc1cc2cnccc2[nH]1 , pIC50: > 7.00

Response field pIC50 (Human complement C1s enzyme (Homo sapiens, UniProt P09871)) for item O=C(Cn1c(-c2ccccc2)ncc(NC(=O)c2ccc(-c3ncc[nH]3)cc2)c1=O)NCc1cc2cnccc2[nH]1 : > 7.00

---

# SYSTEM_TESTED: Human complement C1s enzyme (Homo sapiens, UniProt P09871)
# Construct: purified from human serum, Complement Technology, Inc
# ASSAY: Human C1s enzyme assay
# APPLIED_CONDITIONS: human complement C1s enzyme 1.16 nM, substrate Z-L-Lys-SBzl, A405; read-out: IC50 (Stars)
pIC50: −log10 of the molar value.
TEST_READOUT: pIC50

Check out these entries, answers already filled in.
compound="O=C(Cn1c(-c2ccc(C(F)(F)F)cc2)ncc(NCc2ccc3oc4ccccc4c3c2)c1=O)NCc1cc2cnccc2[nH]1 [Compound 135]" result_value="> 7.00"
compound="O=C(Cn1c(-c2ccccc2)ncc(NC(=O)NCC2CCCCC2)c1=O)NCc1cc2cnccc2[nH]1 [Compound 76]" result_value="6.00 to 7.00"
compound="O=C(Cc1cc(NCCCc2ccccc2)ncc1-c1ccccc1)NCc1cc2cnccc2[nH]1 [Compound 80]" result_value="< 6.00"
compound="C[C@@H](Nc1cn(C)c(=O)n(CC(=O)NCc2cc3cnccc3[nH]2)c1=O)c1ccc2oc3ccccc3c2c1 [Compound 366]" result_value="< 6.00"
compound="O=C(Cn1c(-c2ccccc2)ncc(NC(=O)c2ccc(Oc3cccnc3)cc2)c1=O)NCc1cc2cnccc2[nH]1 [Compound 53]" result_value="> 7.00"

# pIC50 of C[C@H](Nc1ncc(-c2ccccc2)n(CC(=O)NCc2cc3cnccc3[nH]2)c1=O)c1ccc2oc3ccccc3c2c1 [Compound 282] = > 7.00

So for O=C(Cn1c(-c2ccccc2)ncc(NC(=O)c2nnc(-c3ccccc3)o2)c1=O)NCc1cc2cnccc2[nH]1 [Compound 223] , the logged pIC50 turned out to be > 7.00

Input C[C@@H](Nc1nnc(N2CCCCC2)n(CC(=O)NCc2cc3cnccc3[nH]2)c1=O)c1ccc2oc3ccccc3c2c1 [Compound 491] . Output pIC50: > 7.00

# compound O=C(Cn1c(-c2ccccc2)cnc(NCc2ccc3oc4ccccc4c3c2)c1=O)NCc1cc2cnccc2[nH]1 [Compound 176] ; its pIC50 = > 7.00

Measured pIC50 of C[C@@H](Nc1nccn(CC(=O)NCc2cc3cnccc3[nH]2)c1=O)c1ccc2oc3ccccc3c2c1 [Compound 329] : 6.00 to 7.00

Briefly, pIC50 measured for CC(C)(Nc1cnc(-c2ccccc2F)n(CC(=O)NCc2cc3cnccc3[nH]2)c1=O)c1ccc2oc3ccccc3c2c1 [Compound 311] : 6.00 to 7.00

Recorded pIC50 (compound O=C(Cn1c(-c2ccccc2)ncc(NC(=O)c2cnc(-c3ccccc3)s2)c1=O)NCc1cc2cnccc2[nH]1 [Compound 106] ): > 7.00

C[C@@H](Nc1ncc(-c2nccs2)n(CC(=O)NCc2cc3cnccc3[nH]2)c1=O)c1ccc2oc3ccccc3c2c1 [Compound 431] has a reported pIC50 of > 7.00

Briefly, pIC50 measured for C[C@@H](Nc1ncc(N2CCCC2)n(CC(=O)NCc2cc3cnccc3[nH]2)c1=O)c1ccc2oc3ccccc3c2c1 [Compound 440] : 6.00 to 7.00
